molecules and their reported GI50
tested on: OVCAR-4; assay: NCI tumour cell line growth inhibition, 48 h
Activity calls are given as the source filed them. Cut-off read from the data, not from the text of the source: active = GI50 up to about 1.1 µM and inactive = higher.
MEASURED_METRIC: GI50

INSERT INTO measurements (molecule, recorded_value) VALUES
  ('Nc1nc(S)c2c(N)n[nH]c2c1C(=O)Nc1ccc(Cl)cc1', '64.4 µM (inactive)'),
  ('Nc1nc(SCCNC(=O)CCc2ccc(O)cc2)nc2c1ncn2C1OC(CO)C(O)C1O (stereo not given)', '> 203 µM (inactive)'),
  ('CN(C)/N=C1/CCC(C(F)(F)F)(C(F)(F)F)O1', '47.6 µM (inactive)'),
  ('C[N+](C)(C)Cc1c(CC#N)[nH]c2ccccc12', '1.2 µM (inactive)'),
  ('CC1=C2CC[C@@]3(C)C(=CCC3O)C2(C)CCC1=O (stereo not given in full)', '> 100 µM (inactive)'),
  ('Cc1cccc(Cl)c1NC(=O)/C=C/c1ccccc1', '26.9 µM (inactive)'),
  ('CC(=O)O[C@@H]1C[C@]2(C(=O)c3ccccc3)C(=O)C(=O)S[C@]12c1ccccc1', '56.1 µM (inactive)'),
  ('CN(C(=O)Cc1ccc(Cl)c(Cl)c1)[C@H]1CCCC[C@@H]1[N+]1(C)CCCC1', '> 100 µM (inactive)'),
  ('Cn1c(-c2c(C3=CC(=O)N(c4ccccc4)C3=O)c3ccccc3n2C)cc2ccccc21', '> 100 µM (inactive)'),
  ('N#Cc1c(-c2ccccc2)c(/C=N/c2cccc(C(F)(F)F)c2)c(=O)n2c1[nH]c1ccccc12', '51.1 µM (inactive)');
